src = ChEMBL document CHEMBL3988442

biological target: Sialic acid-binding Ig-like lectin 9 (Homo sapiens); assay: Hs-Siglec9 ALPHAscreen SOP 20170721; design: scale not given: direction of the effect not stated beside the values; settings: 10 µM
experimental readout: Percent Effect (%)
One number for each entry, in %.

- compound: "Cc1noc(C)c1CN1CCN(C(=O)Cn2cncn2)CC1"
  unit name: "%"
  Percent Effect: 5
- compound: "Cc1ccc(S(=O)(=O)N2CCC3(CC(C(=O)NCC4CC4)=NO3)C2)cc1 (centres undefined)"
  unit name: "%"
  Percent Effect: -4.73
- compound: "CN1CCCC2(CCN(C(=O)CCn3cncn3)C2)C1=O (centres undefined)"
  unit name: "%"
  Percent Effect: 4.1
- compound: "Cc1ncsc1C(=O)N(Cc1cccnc1)C1CC1"
  unit name: "%"
  Percent Effect: 10

Take each entry in turn and give its Percent Effect.
1. CC(=O)N1CCC2(CCCN(C(=O)c3ccccc3)C2)C1 (centres undefined)
2. Cc1noc(NC(=O)c2ccc(Br)s2)n1
3. CCS(=O)(=O)N1CCc2ccc(NC(=O)Nc3cccc(SC)c3)cc21
4. Cc1c[nH]c(CN(C)C(=O)c2cccc(CCC(C)(C)O)c2)n1
5. CCc1cnc(C)nc1NCCN1CCCCCC1
6. Cc1cnn(CCC(=O)N2CCCC(c3nc(C)no3)C2)c1 (centres undefined)
7. COc1ccc(OCCc2sc(C3(O)CCCNCC3)nc2C)cc1 (centres undefined)

Result:
[-1.1, -3.75, 1.13, 15.8, 10.8, -1.06, 1.72]

====

Target: Arginase-2, mitochondrial (Homo sapiens) (UniProt P78540)
Sequence (whole entry): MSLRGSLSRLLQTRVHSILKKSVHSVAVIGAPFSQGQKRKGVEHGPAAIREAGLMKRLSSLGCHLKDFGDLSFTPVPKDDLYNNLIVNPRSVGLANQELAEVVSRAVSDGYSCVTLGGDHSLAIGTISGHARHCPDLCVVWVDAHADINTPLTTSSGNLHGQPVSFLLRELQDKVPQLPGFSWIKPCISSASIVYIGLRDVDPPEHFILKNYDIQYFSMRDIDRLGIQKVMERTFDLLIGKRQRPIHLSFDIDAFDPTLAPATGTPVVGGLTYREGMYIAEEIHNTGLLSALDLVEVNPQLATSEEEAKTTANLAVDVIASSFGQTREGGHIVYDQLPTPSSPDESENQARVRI
Test: in vitro enzyme assay to detect the production of urea directly proportional to the activity of Arginase II; also: in the data most compounds retested in dose-response had high values
Type: functional
Parameters: scale not given: direction of the effect not stated beside the values
Conditions: 33.3 µM
experimental readout: Percent Effect (%)
Answers are plain numbers, in %.

Example molecules with recorded Percent Effect:
- molecule: "NC(=O)NCC(=O)N1C[C@H]2CC[C@@H]1CN(Cc1ccccc1)C2"
  Percent Effect (%): -6.82
- molecule: "Cn1cc(-c2csc(CN3CCOCC3)n2)cn1"
  Percent Effect (%): 8.39
- molecule: "Cc1cnc(CN(C)C2CCN(CC(=O)Nc3nncs3)C2)o1 (stereo unspecified)"
  Percent Effect (%): 1.14
- molecule: "CN(C)C(=O)[C@@H]1C[C@@H]2CCN(Cc3ccc4c(c3)OCO4)C[C@@H]2O1"
  Percent Effect (%): -2.83
- molecule: "NS(=O)(=O)CCNC(=O)C1(c2ccc(Br)cc2)CC1"
  Percent Effect (%): -13.8

Take each entry in turn and give its Percent Effect.
1. CN(Cc1nccn1CC(F)(F)F)C(=O)c1ccc(F)cc1F
2. Cn1ccnc1CN1CCN(CCOc2ccccc2C#N)CC1

Result:
-5.92
5.4

Take each entry in turn and give its Percent Effect.
1. O=C(Cc1ccccc1)N1CCC2(CC(=O)N(c3ccsc3)C2)C1 (stereo unspecified)
2. CCC[C@@H]1CN(S(=O)(=O)c2ccc(C)c(F)c2)C[C@H]1N(C)C
3. N#CCCN(C(=O)CN1CCCC1C1CCCCC1)c1ccccc1 (stereo unspecified)
4. COc1c(C2CCCN2CC(=O)Nc2cc(C)no2)c(C)nn1C (stereo unspecified)

Result:
[11.2, 2.08, 2.5, -2.03]

====

target: Protein translocase subunit SecA (Escherichia coli (strain K12)); experiment: Assay to Identify E. coli SecA ATPase Inhibitors; format: functional; parameters: scale not given: direction of the effect not stated beside the values; settings: 30 µM
Entries with a potency or affinity are not part of this list.
experimental readout: Percent Effect (%)
Answers are plain numbers, in %.

Example compounds with recorded Percent Effect:
- compound: "O=C(Nc1cccnc1)[C@H]1C[C@@H]2CN(C(=O)NC3CCCC3)C[C@H]1O2"
  Percent Effect [%]: -0.299
- compound: "CC(C)(C(=O)NCC1CC1)c1ccccc1F"
  Percent Effect [%]: -8.21
- compound: "Cn1ccc(NC(=O)Cc2cccc(F)c2)n1"
  Percent Effect [%]: -2.82
- compound: "CCOCCN1CCn2c(C)nnc2C1"
  Percent Effect [%]: 2.73
- compound: "Cc1cccc(C2(NC(=O)CCN3C(=O)CCC3=O)CCCC2)c1"
  Percent Effect [%]: -5.83

Take each entry in turn and give its Percent Effect.
1. CCN(CC)C(=O)c1nnc2ccc(N3CCOCC3)cc2n1
2. COCCc1noc(CN2CCCCC2Cn2cc(C)cn2)n1 (stereo not given)
3. Cc1nccn1-c1cc(CNC(=O)c2ccccn2)ccn1
4. COCCCN(C)C1CCCN(Cc2noc(C)n2)C1 (stereo not given)

Result:
1. -7.46
2. -0.511
3. -3.33
4. -1.35

Take each entry in turn and give its Percent Effect.
1. Cc1ccc([C@@H]2CN(S(=O)(=O)N(C)C)C[C@H]2N(C)C)cc1
2. COc1ccc(C2=CCN(C(=O)C3CCN(C)C(=O)C3)CC2)cc1 (stereo not given)

Result:
1: -5.32; 2: -3.77

====

target: Ubiquitin-activating enzyme e1, putative (Leishmania donovani (strain BPK282A1)) (UniProt E9BSI1); experiment: Leishmania donovani Ubiquitin Activating Enzyme (LdE1); format: functional; set-up: scale not given: direction of the effect not stated beside the values; conditions: 30 µM
Sequence (E9BSI1 as listed by the source): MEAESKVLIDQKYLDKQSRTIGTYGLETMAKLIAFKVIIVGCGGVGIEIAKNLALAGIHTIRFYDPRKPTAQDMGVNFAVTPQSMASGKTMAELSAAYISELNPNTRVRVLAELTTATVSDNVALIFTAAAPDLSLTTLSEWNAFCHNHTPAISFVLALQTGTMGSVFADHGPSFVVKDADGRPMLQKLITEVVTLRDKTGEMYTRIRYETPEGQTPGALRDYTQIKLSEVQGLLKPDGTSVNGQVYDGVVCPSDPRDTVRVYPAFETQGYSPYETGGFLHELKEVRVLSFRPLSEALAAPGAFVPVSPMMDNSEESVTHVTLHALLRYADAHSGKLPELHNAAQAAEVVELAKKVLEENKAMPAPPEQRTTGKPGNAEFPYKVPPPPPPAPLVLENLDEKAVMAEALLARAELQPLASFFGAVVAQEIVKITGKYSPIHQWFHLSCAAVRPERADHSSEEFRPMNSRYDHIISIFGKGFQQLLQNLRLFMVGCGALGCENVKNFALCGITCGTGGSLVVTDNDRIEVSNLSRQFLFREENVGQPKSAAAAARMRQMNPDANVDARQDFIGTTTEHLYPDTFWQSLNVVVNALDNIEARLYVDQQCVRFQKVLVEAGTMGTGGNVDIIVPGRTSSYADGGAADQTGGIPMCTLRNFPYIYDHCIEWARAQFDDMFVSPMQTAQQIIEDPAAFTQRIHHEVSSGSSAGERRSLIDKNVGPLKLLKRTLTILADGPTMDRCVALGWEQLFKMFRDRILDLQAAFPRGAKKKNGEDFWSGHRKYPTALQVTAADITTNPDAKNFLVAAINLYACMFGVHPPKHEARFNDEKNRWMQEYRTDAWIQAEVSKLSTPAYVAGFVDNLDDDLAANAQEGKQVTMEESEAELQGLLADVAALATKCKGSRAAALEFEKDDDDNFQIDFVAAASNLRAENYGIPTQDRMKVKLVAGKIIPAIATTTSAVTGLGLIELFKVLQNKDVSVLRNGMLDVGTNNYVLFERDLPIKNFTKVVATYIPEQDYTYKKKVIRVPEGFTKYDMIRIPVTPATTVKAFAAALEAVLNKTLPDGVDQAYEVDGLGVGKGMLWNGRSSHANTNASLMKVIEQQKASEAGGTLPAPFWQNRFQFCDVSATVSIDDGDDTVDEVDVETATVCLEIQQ
Measured potencies and affinities stand elsewhere.
experimental readout: Percent Effect (%)
Answers are plain numbers, in %.

Example molecules with recorded Percent Effect:
- molecule: "CC(=O)N1CCN(C(=O)c2cc(-n3cnnn3)ccc2Cl)CC1"
  Percent Effect, %: 2.63
- molecule: "CC(=O)N1CCC2(CCCN(Cc3ccc(Cl)c(C(F)(F)F)c3)C2)C1 (stereo unspecified)"
  Percent Effect, %: 3.9
- molecule: "N#Cc1ccc(OCCN2CCc3c(ncn3C3CC3)C2)cc1"
  Percent Effect, %: 23.4
- molecule: "COCC(C)N(C)C(=O)c1nc(S(C)(=O)=O)n2ccccc12 (stereo unspecified)"
  Percent Effect, %: 2.56
- molecule: "NS(=O)(=O)CCNC(=O)c1ccc(-c2ccc(F)cc2)cc1F"
  Percent Effect, %: 5.2

Switching to the query record.
In plain terms, CN(Cc1ccco1)C(=O)CN1CCCCC1Cn1cccn1 (stereo unspecified) has a documented Percent Effect of 0

====

Field: Percent Effect. Provide a value for each of the molecules that follow.
species on record: Homo sapiens; experiment: To identify inhibition of the IFN signalling (Jak-Stat) pathway via expression of an eGFP reporter gene under the control of an IFN-stimulated response element (ISRE) containing MxA promoter.; format: functional; design: scale not given: direction of the effect not stated beside the values; conditions: 30 µM
Don't forget the unit after the number, please.

- molecule: "Cn1ccnc1CN1CCN(Cc2noc(-c3ccccc3)n2)CC1"
  result value: "13.5%"

Take each entry in turn and give its Percent Effect.
1. CCn1ccnc1CNCC1CCCN1c1cccnn1 (centres undefined)
2. O=C(COC(=O)Cc1cccs1)NCc1cccc(NC(=O)C2CC2)c1
3. CCOCC1CN(C(=O)c2cscn2)Cc2nnn(CC3CC3)c21 (centres undefined)
4. COC(=O)Cn1c(=O)nc2n1C(=O)N(c1ccc(Cl)cc1)C2
5. COCCNC(=O)[C@H]1CN(Cc2nccs2)C[C@H]2OCC[C@@H]12
6. COC[C@@]12CCO[C@@H]1CCN(C(=O)Cc1ccccc1F)C2

Result:
9.51%
4.04%
-1.13%
-2.27%
15.8%
5.78%

Take each entry in turn and give its Percent Effect.
1. COCC(=O)N(C)Cc1ccc(Cl)c(Cl)c1
2. CNCC(=O)N1CC(c2cc(Nc3ncccn3)nc(C)n2)C1
3. CC(=O)N1CCCC1c1cc(N2CCN(C3CCCC3)CC2)cc(C)n1 (centres undefined)
4. CN1C(=O)C(C)(C)COc2cc(NS(=O)(=O)Cc3ccccc3)ccc21
5. COCCC(=O)N1CC[C@@H](N(C)C)[C@@H]1Cc1ccccc1

Result:
10.7%
13.8%
6.74%
57.7%
-2.67%

Take each entry in turn and give its Percent Effect.
1. Cc1ncc(CNC(=O)CCc2cccc(F)c2)c(C2CCCN2C)n1 (centres undefined)
2. CCn1ccnc1CN1CCCN(C(=O)c2cccc(C#N)c2)CC1
3. CC(C)c1ncc(S(C)(=O)=O)c(C2CCCNC2)n1 (centres undefined)

Result:
2.42%
9.49%
-1.56%

Take each entry in turn and give its Percent Effect.
1. Cc1ccc(Nc2nccc(C3CCCN(CC(=O)N(C)C)C3)n2)nc1 (centres undefined)
2. O=S(=O)(C1CC1)N1C[C@H]2CCC[C@@]2(COc2ccccn2)C1
3. CN(Cc1cn2ccccc2n1)C1CCCN(c2cccnn2)C1 (centres undefined)
4. CCCc1n[nH]c(C2CN(CCn3cccn3)CCO2)n1 (centres undefined)

Result:
1: -1.72%; 2: -6.25%; 3: -3.7%; 4: -12.6%

Take each entry in turn and give its Percent Effect.
1. CC(C)c1cccc(CSc2nnc(CN3CCCC3=O)o2)n1
2. Cc1nsc(NC(=O)N2CCN(Cc3ccc(F)cc3)C(=O)C2)n1
3. Cc1noc(C)c1CNC(=O)N1CCN(Cc2cscn2)CC1
4. Cc1nccn1-c1cccc(C2CCCN(C3CCCCC3)C2)n1 (centres undefined)
5. Cn1cccc1C1CCCN1C(=O)NCCCn1cccn1 (centres undefined)

Result:
-2.67%
5.1%
-2.83%
2.91%
8.34%
